- assayed.system: Transient receptor potential cation channel subfamily V member 1 (Homo sapiens)
- measurement.description: Concentration required to inhibit [3H]RTX radioligand binding towards transient receptor potential cation channel (subfamily V, member 1) expressed in chinese hamster ovary cells
pIC50: −log10 of the molar value.

- sample.smiles: "CC(C)(C)c1ccc(CNC(=S)NCc2ccc(NS(C)(=O)=O)c(F)c2)cc1"
  pIC50: 7.27

###

- assayed.system: Transient receptor potential cation channel subfamily V member 1 (Homo sapiens, UniProt Q8NER1)
- Sequence (Q8NER1 whole entry): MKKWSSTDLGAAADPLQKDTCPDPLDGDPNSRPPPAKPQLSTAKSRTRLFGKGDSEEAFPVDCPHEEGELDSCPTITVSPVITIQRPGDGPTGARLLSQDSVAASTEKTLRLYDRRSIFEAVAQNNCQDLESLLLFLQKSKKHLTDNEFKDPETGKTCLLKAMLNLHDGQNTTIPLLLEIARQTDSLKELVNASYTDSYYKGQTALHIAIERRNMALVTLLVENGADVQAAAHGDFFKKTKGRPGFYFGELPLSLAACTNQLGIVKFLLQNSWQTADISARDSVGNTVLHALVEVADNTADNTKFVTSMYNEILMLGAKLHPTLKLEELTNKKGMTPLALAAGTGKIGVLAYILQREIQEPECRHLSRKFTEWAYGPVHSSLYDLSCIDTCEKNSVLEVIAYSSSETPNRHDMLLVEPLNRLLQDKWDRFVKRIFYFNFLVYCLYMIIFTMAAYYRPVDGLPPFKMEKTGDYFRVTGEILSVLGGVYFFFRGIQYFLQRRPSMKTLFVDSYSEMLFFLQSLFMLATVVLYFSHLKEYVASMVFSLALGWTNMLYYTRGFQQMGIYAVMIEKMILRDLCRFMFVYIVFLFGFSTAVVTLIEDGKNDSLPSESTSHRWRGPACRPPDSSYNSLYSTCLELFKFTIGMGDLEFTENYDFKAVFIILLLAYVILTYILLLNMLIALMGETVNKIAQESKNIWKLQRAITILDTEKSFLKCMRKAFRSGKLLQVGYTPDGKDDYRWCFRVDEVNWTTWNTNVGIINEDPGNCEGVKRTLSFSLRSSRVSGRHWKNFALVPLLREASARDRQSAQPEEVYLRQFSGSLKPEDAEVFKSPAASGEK
- measurement.description: Concentration required to antagonized capsaicin-induced calcium uptake at the transient receptor potential cation channel (subfamily V member 1) expressed in chinese hamster ovary cells
pEC50: −log10 of the molar value.

- sample.smiles: "CC(C)(C)c1ccc(CNC(=S)NCc2ccc(NS(C)(=O)=O)c(F)c2)cc1"
  pEC50: 8.10
